Taken from ChEMBL document CHEMBL4138100.

biological target: C-X-C chemokine receptor type 4 (Homo sapiens); assay: Inhibition of biotinylated TN14003 binding to CXCR4 in human MDA-MB-231 cells assessed as reduction in fluorescence preincubated for 10 mins followed by biotinylated-TN14003 addition measured after 30 mins by streptavidin-rhodamine staining based immunofluorescence microscopic analysis; format: cell-based
assayMetric: EC (nM)

These recorded examples may help you get a feel for the data.
{"mol": "Cc1ccc(S(=O)(=O)NCc2ccc(CNC(=O)c3ccc(Cl)cc3)cc2)cc1", "recordedValue": 10}
{"mol": "Cc1ccc(S(=O)(=O)NCc2ccc(CNC(=O)c3cccc(C)c3)cc2)cc1", "recordedValue": 1000}

a = Cc1ccc(S(=O)(=O)NCc2ccc(CNC(=O)c3c(Cl)cc(Cl)cc3Cl)cc2)cc1
b = O=C(NCc1ccc(CNS(=O)(=O)c2ccccc2)cc1)c1ccc(Cl)cc1
c = Cc1cccc(C(=O)NCc2ccc(CNS(=O)(=O)c3ccccc3)cc2)c1
Order each entry by recorded EC, climbing from the minimum. State the ranking by listing the labels in the requested order.
a, b, c
(a: 10 nM, b: 100 nM, c: 1000 nM)

A = O=C(NCc1ccc(CNS(=O)(=O)c2ccccc2)cc1)c1cccc(Cl)c1
B = Cc1ccc(S(=O)(=O)NCc2ccc(CNC(=O)c3ccccc3Cl)cc2)cc1
Would you let me know which has the greater EC value, A or B ? Field: selected label. Fill in the label of the entry you choose.
A

----------
biological target: C-X-C chemokine receptor type 4 (Homo sapiens) (UniProt P61073); assay: Inhibition of CXCR4-mediated chemotaxis in human MDA-MB-231 cells assessed as inhibition of CXCL12alpha-induced cell invasion at 100 nM after 22 hrs by hematoxylin/eosin dye-based matrigel assay relative to control; type: functional
Sequence (P61073 whole entry): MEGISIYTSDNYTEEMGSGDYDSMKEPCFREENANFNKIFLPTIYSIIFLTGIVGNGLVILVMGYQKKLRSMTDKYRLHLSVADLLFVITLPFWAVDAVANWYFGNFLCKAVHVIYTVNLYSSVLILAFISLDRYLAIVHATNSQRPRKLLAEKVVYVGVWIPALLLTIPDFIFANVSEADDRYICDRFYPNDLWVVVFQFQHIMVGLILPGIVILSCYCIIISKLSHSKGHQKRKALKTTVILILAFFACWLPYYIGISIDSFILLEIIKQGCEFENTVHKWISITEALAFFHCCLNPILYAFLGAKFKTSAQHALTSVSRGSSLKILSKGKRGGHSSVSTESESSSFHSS
assayMetric: inhibition

{"mol": "Cc1ccc(S(=O)(=O)NCc2ccc(CNC(=O)c3ccc(F)cc3)cc2)cc1", "targetDesc": "C-X-C chemokine receptor type 4 (Homo sapiens) (UniProt P61073)", "inhibition": "> 60%"}
{"mol": "Cc1ccc(S(=O)(=O)NCc2ccc(CNC(=O)c3ccccc3C)cc2)cc1", "targetDesc": "C-X-C chemokine receptor type 4 (Homo sapiens) (UniProt P61073)", "inhibition": "< 50%"}
{"mol": "COc1ccccc1C(=O)NCc1ccc(CNS(=O)(=O)c2ccccc2)cc1", "targetDesc": "C-X-C chemokine receptor type 4 (Homo sapiens) (UniProt P61073)", "inhibition": "> 90%"}
{"mol": "O=C(NCc1ccc(CNS(=O)(=O)c2ccccc2)cc1)c1cccc(F)c1", "targetDesc": "C-X-C chemokine receptor type 4 (Homo sapiens) (UniProt P61073)", "inhibition": "> 60%"}
{"mol": "O=C(NCc1ccc(CNS(=O)(=O)c2ccccc2)cc1)c1ccc(F)cc1", "targetDesc": "C-X-C chemokine receptor type 4 (Homo sapiens) (UniProt P61073)", "inhibition": "> 60%"}
{"mol": "O=C(NCc1ccc(CNS(=O)(=O)c2ccccc2)cc1)c1cccnc1", "targetDesc": "C-X-C chemokine receptor type 4 (Homo sapiens) (UniProt P61073)", "inhibition": "> 60%"}
{"mol": "O=C(NCc1ccc(CNS(=O)(=O)c2ccccc2)cc1)c1ccccc1Cl", "targetDesc": "C-X-C chemokine receptor type 4 (Homo sapiens) (UniProt P61073)", "inhibition": "> 60%"}
{"mol": "Cc1ccc(S(=O)(=O)NCc2ccc(CNC(=O)c3ccncc3)cc2)cc1", "targetDesc": "C-X-C chemokine receptor type 4 (Homo sapiens) (UniProt P61073)", "inhibition": "55%"}

Continue with the next molecule.
Given the entry `O=C(NCc1ccc(CNS(=O)(=O)c2ccccc2)cc1)c1c(Cl)cc(Cl)cc1Cl` , report its measured inhibition.
> 60%

----------
test: Stability in nude mouse plasma assessed as parent compound remaining at 30 mg/kg, iv after 50 mins by HPLC analysis; format: ADME, organism-based; conditions: read-out: Stability
assayMetric: remaining at 50 min (%)
Write it as a number; the unit % goes unstated.

Quick one: remaining at 50 min of `Cc1ccc(S(=O)(=O)NCc2ccc(CNC(=O)c3ccc(F)cc3)cc2)cc1` ?
45

----------
assay: Stability in nude mouse plasma assessed as parent compound remaining at 30 mg/kg, iv after 5 mins by HPLC analysis; format: ADME, organism-based; conditions: read-out: Stability
assayMetric: remaining at 5 min (%)
// units = %; emit number, no label

Which remaining at 5 min is listed for `Cc1ccc(S(=O)(=O)NCc2ccc(CNC(=O)c3ccc(F)cc3)cc2)cc1` ?
100

----------
molecular target: C-X-C chemokine receptor type 4 (Homo sapiens); assay: Inhibition of biotinylated TN14003 binding to CXCR4 in human MDA-MB-231 cells assessed as reduction in fluorescence preincubated for 10 mins followed by biotinylated-TN14003 addition measured after 30 mins by streptavidin-rhodamine staining based immunofluorescence microscopic analysis; assay type: cell-based
assayMetric: EC (nM)

Some solved cases for reference:
{"mol": "O=C(NCc1ccc(CNS(=O)(=O)c2ccccc2)cc1)c1cccnc1", "targetDesc": "C-X-C chemokine receptor type 4 (Homo sapiens)", "EC [nM]": 10}
{"mol": "COc1cccc(C(=O)NCc2ccc(CNS(=O)(=O)c3ccc(C)cc3)cc2)c1", "targetDesc": "C-X-C chemokine receptor type 4 (Homo sapiens)", "EC [nM]": 10}

A = O=C(NCc1ccc(CNS(=O)(=O)c2ccccc2)cc1)c1cccc(F)c1
B = Cc1ccc(C(=O)NCc2ccc(CNS(=O)(=O)c3ccc(C)cc3)cc2)cc1
Hi! Which is lower in terms of EC, the first one A or the second one B ? Write down the label of the entry you select.
A

----------
assay: Stability in nude mouse plasma assessed as parent compound remaining at 30 mg/kg, iv after 20 mins by HPLC analysis; format: ADME, organism-based; details: read-out: Stability
assayMetric: remaining at 20 min (%)
Please state the figure in %; there is no need to write the unit.

Report remaining at 20 min for `Cc1ccc(S(=O)(=O)NCc2ccc(CNC(=O)c3ccc(F)cc3)cc2)cc1` please.
65

----------
molecular target: C-X-C chemokine receptor type 4 (Homo sapiens); assay: Inhibition of biotinylated TN14003 binding to CXCR4 in human MDA-MB-231 cells assessed as reduction in fluorescence preincubated for 10 mins followed by biotinylated-TN14003 addition measured after 30 mins by streptavidin-rhodamine staining based immunofluorescence microscopic analysis; assay type: cell-based
assayMetric: EC (nM)

{"mol": "Cc1ccc(S(=O)(=O)NCc2ccc(CNC(=O)c3ccc([N+](=O)[O-])cc3)cc2)cc1", "targetDesc": "C-X-C chemokine receptor type 4 (Homo sapiens)", "assayMetric": "EC", "unitsSymbol": "nM", "recordedValue": 10}
{"mol": "Cc1ccc(S(=O)(=O)NCc2ccc(CNC(=O)c3ccccc3C)cc2)cc1", "targetDesc": "C-X-C chemokine receptor type 4 (Homo sapiens)", "assayMetric": "EC", "unitsSymbol": "nM", "recordedValue": 100}
{"mol": "COc1ccc(C(=O)NCc2ccc(CNS(=O)(=O)c3ccc(C)cc3)cc2)cc1", "targetDesc": "C-X-C chemokine receptor type 4 (Homo sapiens)", "assayMetric": "EC", "unitsSymbol": "nM", "recordedValue": 100}
{"mol": "O=C(NCc1ccc(CNS(=O)(=O)c2ccccc2)cc1)c1c(Cl)cc(Cl)cc1Cl", "targetDesc": "C-X-C chemokine receptor type 4 (Homo sapiens)", "assayMetric": "EC", "unitsSymbol": "nM", "recordedValue": 10}
{"mol": "Cc1ccc(S(=O)(=O)NCc2ccc(CNC(=O)c3cccc(F)c3)cc2)cc1", "targetDesc": "C-X-C chemokine receptor type 4 (Homo sapiens)", "assayMetric": "EC", "unitsSymbol": "nM", "recordedValue": 1}

a = Cc1ccccc1C(=O)NCc1ccc(CNS(=O)(=O)c2ccccc2)cc1
b = COc1ccccc1C(=O)NCc1ccc(CNS(=O)(=O)c2ccc(C)cc2)cc1
c = Cc1ccc(S(=O)(=O)NCc2ccc(CNC(=O)c3ccncc3)cc2)cc1
Order the records so the highest EC appears first and the lowest last. Please, when replying, give the labels in the order that was requested.
b, c, a

----------
Each entry below carries its recorded inhibition.
biological target: C-X-C chemokine receptor type 4 (Homo sapiens) (UniProt P61073); test: Inhibition of CXCR4-mediated chemotaxis in human MDA-MB-231 cells assessed as inhibition of CXCL12alpha-induced cell invasion at 100 nM after 22 hrs by hematoxylin/eosin dye-based matrigel assay relative to control; assay type: functional

# example entries with known answers
{"mol": "COc1ccc(C(=O)NCc2ccc(CNS(=O)(=O)c3ccc(C)cc3)cc2)cc1", "recordedValue": "55%"}
{"mol": "Cc1ccc(C(=O)NCc2ccc(CNS(=O)(=O)c3ccccc3)cc2)cc1", "recordedValue": "< 50%"}
{"mol": "Cc1ccc(S(=O)(=O)NCc2ccc(CNC(=O)c3ccc(Cl)cc3)cc2)cc1", "recordedValue": "> 60%"}
{"mol": "O=C(NCc1ccc(CNS(=O)(=O)c2ccccc2)cc1)c1ccccc1", "recordedValue": "> 60%"}
{"mol": "O=C(NCc1ccc(CNS(=O)(=O)c2ccccc2)cc1)c1ccncc1", "recordedValue": "> 60%"}
{"mol": "O=C(NCc1ccc(CNS(=O)(=O)c2ccccc2)cc1)c1ccc(Cl)cc1", "recordedValue": "< 50%"}
{"mol": "COc1cccc(C(=O)NCc2ccc(CNS(=O)(=O)c3ccc(C)cc3)cc2)c1", "recordedValue": "> 90%"}
{"mol": "Cc1ccc(S(=O)(=O)NCc2ccc(CNC(=O)c3c(Cl)cc(Cl)cc3Cl)cc2)cc1", "recordedValue": "55%"}
{"mol": "Cc1ccc(S(=O)(=O)NCc2ccc(CNC(=O)c3cccc(Cl)c3)cc2)cc1", "recordedValue": "> 60%"}

Reported inhibition for `O=C(NCc1ccc(CNS(=O)(=O)c2ccccc2)cc1)c1ccc([N+](=O)[O-])cc1` : what is it?
55%
